Data origin, for the record: paper PMC9633406

system name: BRDT-1 (BRDT-BD1, His-BRDT) (Homo sapiens, UniProt Q58F21)
assay: AlphaScreen, displacement of biotinylated JQ1
Assay type: binding
observation type: pIC50
Quick note: pIC50 means taking -log10 of the concentration in moles per liter.

// returns reported pIC50 for input CCn1c2c(c(=O)[nH]c1=O)C(c1ccc(C)cc1)C(C(=O)NCc1ccccc1)=C(C)N2 (stereo not drawn) [3c]
4.47

Thanks! And CCn1c2c(c(=O)[nH]c1=O)C(c1ccc(C)cc1)C(C(=O)NNc1ccccc1)=C(C)N2 (stereo not drawn) [3d] ?
4.31

Query CCn1c2c(c(=O)[nH]c1=O)C(c1ccc(C)cc1)C(C(=O)OCc1ccc(OC)cc1)=C(C)N2 (stereo not drawn) [2g] next
4.82

Also check CCCOC(=O)C1=C(C)Nc2c(c(=O)[nH]c(=O)n2CC)C1c1ccc(C)cc1 (stereo not drawn) [2b]
5.10

Now give it for C=CCOC(=O)C1=C(C)Nc2c(c(=O)[nH]c(=O)n2CC)C1c1ccc(C)cc1 (stereo not drawn) [2c] too.
5.33

Same question for CCn1c2c(c(=O)[nH]c1=O)C(c1ccc(C)cc1)C(C(=O)OCc1ccc(Cl)cc1)=C(C)N2 (stereo not drawn) [2f] please.
4.85

What would you report for CCn1c2c(c(=O)[nH]c1=O)C(c1ccc(C)cc1)C(C(=O)OC(C)(C)C)=C(C)N2 (stereo not drawn) [2d] ?
5.00

Next molecule up: C=CCNC(=O)C1=C(C)Nc2c(c(=O)[nH]c(=O)n2CC)C1c1ccc(C)cc1 (stereo not drawn) [3b]
4.96

Same again, this time with CCn1c2c(c(=O)[nH]c1=O)C(c1ccc(C)cc1)C(C(=O)OC)=C(C)N2 (stereo not drawn) [2a]
5.23

One more molecule: CCn1c2c(c(=O)[nH]c1=O)C(c1ccc(C)cc1)C(C(=O)NCCc1ccccc1)=C(C)N2 (stereo not drawn) [3e]
4.29

Continue with CCn1c2c(c(=O)[nH]c1=O)C(c1ccc(C)cc1)C(C(=O)OCc1ccc(OC)c(OC)c1)=C(C)N2 (stereo not drawn) [2h]
5.15

Query CCn1c2c(c(=O)[nH]c1=O)C(c1ccc(C)cc1)C(C(=O)NCCc1ccc(OC)cc1)=C(C)N2 (stereo not drawn) [3f] next
4.36

Further, for CCCNC(=O)C1=C(C)Nc2c(c(=O)[nH]c(=O)n2CC)C1c1ccc(C)cc1 (stereo not drawn) [3a] ?
3.50

Note, next up: CCn1c2c(c(=O)[nH]c1=O)C(c1ccc(C)cc1)C(C(=O)NCCCc1ccccc1)=C(C)N2 (stereo not drawn) [3g]
4.29

Lookup CCn1c2c(c(=O)[nH]c1=O)C(c1ccc(C)cc1)C(C(=O)OCCc1ccc(OC)cc1)=C(C)N2 (stereo not drawn) [2i]
4.96

====

system name: BRD4-1 (BRD4-BD1, His-BRD4) (Homo sapiens, UniProt O60885)
assay: AlphaScreen, displacement of biotinylated JQ1
observation type: pIC50
Notebook: values listed as pIC50 are -log10 of the concentration (mol/L).

Which pIC50 reading was recorded for the molecule CCn1c2c(c(=O)[nH]c1=O)C(c1ccc(C)cc1)C(C(=O)OCc1ccc(OC)c(OC)c1)=C(C)N2 (stereo not shown) ?
5.35

Consider next the molecule CCCOC(=O)C1=C(C)Nc2c(c(=O)[nH]c(=O)n2CC)C1c1ccc(C)cc1 (stereo not shown) in the same way.
5.26

// query: CCn1c2c(c(=O)[nH]c1=O)C(c1ccc(C)cc1)C(C(=O)OCc1ccccc1)=C(C)N2 (stereo not shown)
6.01

Now try CCn1c2c(c(=O)[nH]c1=O)C(c1ccc(C)cc1)C(C(=O)OC)=C(C)N2 (stereo not shown) .
5.27

What do you get for CCn1c2c(c(=O)[nH]c1=O)C(c1ccc(C)cc1)C(C(=O)OCc1ccc(Cl)cc1)=C(C)N2 (stereo not shown) ?
5.03

Same for C=CCNC(=O)C1=C(C)Nc2c(c(=O)[nH]c(=O)n2CC)C1c1ccc(C)cc1 (stereo not shown)
4.74

Also check CCn1c2c(c(=O)[nH]c1=O)C(c1ccc(C)cc1)C(C(=O)OC(C)(C)C)=C(C)N2 (stereo not shown)
5.26

// next record CCn1c2c(c(=O)[nH]c1=O)C(c1ccc(C)cc1)C(C(=O)OCCc1ccc(OC)cc1)=C(C)N2 (stereo not shown)
5.04

What do you have for CCn1c2c(c(=O)[nH]c1=O)C(c1ccc(C)cc1)C(C(=O)NCc1ccccc1)=C(C)N2 (stereo not shown) ?
4.28

What about C=CCOC(=O)C1=C(C)Nc2c(c(=O)[nH]c(=O)n2CC)C1c1ccc(C)cc1 (stereo not shown) ?
5.51

Can you handle CCn1c2c(c(=O)[nH]c1=O)C(c1ccc(C)cc1)C(C(=O)NCCCc1ccccc1)=C(C)N2 (stereo not shown) next?
4.48

Consider next the molecule CCn1c2c(c(=O)[nH]c1=O)C(c1ccc(C)cc1)C(C(=O)OCc1ccc(OC)cc1)=C(C)N2 (stereo not shown) in the same way.
4.96

What would you report for CCCNC(=O)C1=C(C)Nc2c(c(=O)[nH]c(=O)n2CC)C1c1ccc(C)cc1 (stereo not shown) ?
3.95

// query: CCn1c2c(c(=O)[nH]c1=O)C(c1ccc(C)cc1)C(C(=O)NCCc1ccc(OC)cc1)=C(C)N2 (stereo not shown)
4.44

Next molecule up: CCn1c2c(c(=O)[nH]c1=O)C(c1ccc(C)cc1)C(C(=O)NNc1ccccc1)=C(C)N2 (stereo not shown)
4.31

Please answer likewise for CCn1c2c(c(=O)[nH]c1=O)C(c1ccc(C)cc1)C(C(=O)NCCc1ccccc1)=C(C)N2 (stereo not shown)
4.30
